System: MRCKA;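 further: KINOMEscan kinase panel screen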
Settings: concentration: 1 μM, replicates: in singlicate; n = 1
For each of the compounds below, state its %Inh.

INSERT INTO measurements (structure, target_system, quantity, result) VALUES
  ('COCCOCCOc1cc2ncc3c4ccc(C#N)cc4[nH]c3c2cc1OC', 'MRCKA', '%Inh', '12%'),
  ('Cl.c1ccc(-c2ccc3c(Nc4ccc5[nH]ncc5c4)ccnc3c2)nc1', 'MRCKA', '%Inh', '9%'),
  ('CCS(=O)(=O)c1ccc(OC)c(Nc2nccc(-c3c(-c4cccc(NC(=O)c5c(F)cccc5F)c4)nn4ncccc34)n2)c1', 'MRCKA', '%Inh', '24%');

Okay, now this compound:
[in] State measured %Inh of the compound `COc1ccc(-c2coc3ccc(-c4nnc(SCc5ccc(OC)c(C(F)(F)F)c5)o4)cc23)cc1` with MRCKA.
[out] 0%
